// reported pIC50 per item
Molecular target: SARM1 SAM-TIR (Homo sapiens (Human), UniProt Q6SZW1)
Sequence (Q6SZW1 409-724): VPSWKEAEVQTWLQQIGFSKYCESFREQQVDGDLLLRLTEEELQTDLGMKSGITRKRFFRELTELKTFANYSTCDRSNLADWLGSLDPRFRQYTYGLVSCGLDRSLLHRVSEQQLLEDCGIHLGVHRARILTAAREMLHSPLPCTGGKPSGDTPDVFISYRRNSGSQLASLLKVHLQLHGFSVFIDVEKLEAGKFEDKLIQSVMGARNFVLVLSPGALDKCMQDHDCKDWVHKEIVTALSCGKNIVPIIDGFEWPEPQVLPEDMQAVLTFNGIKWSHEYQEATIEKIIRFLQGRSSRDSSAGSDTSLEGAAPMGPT
Test: biochemical
Assay type: biochemical
Details: SAM-TIR lysate 5 μg/mL, 2 hr pre-incubation, 5 μM NAD+, RapidFire MS
pIC50: −log10 of the molar value.

Guide cases for pIC50, answers given:
In [3]: df
Out[3]:
                    smiles        result
0   Nc1c[nH]c(=O)c2cnccc12  4.52 to 4.82
1  CN(C)c1nccc2c(Br)cccc12        < 4.52
2          Nc1cccc2cnncc12  4.52 to 4.82
3      Nc1ccc(Cl)c2ccncc12        > 5.30
4   FC(F)(F)c1cccc2cnccc12        < 4.52
5      Cc1cncc2cccc(Br)c12  4.82 to 5.30
6         Clc1ccnc2cnccc12        > 5.30
7     Clc1ccc(Br)c2cnccc12  4.52 to 4.82

Short answer please: pIC50, SARM1 SAM-TIR (Homo sapiens (Human), UniProt Q6SZW1), entry COc1c[nH]c(=O)c2cnccc12
< 4.52

Field entry: Oc1cc2c(Br)cccc2cn1
< 4.52

Field entry: O=S(=O)(Nc1nccc2c(Br)cccc12)C1CC1
4.52 to 4.82

Field entry: Cc1nccc2c(Br)cccc12
< 4.52

Each recorded value in this set is attributed to patent US12338238B2.
